tested on: Cochliobolus miyabeanus; assay: Test Example 6 Control Test Against Rice Brown Spot Fungus (96 well titer plate growth); assay type: cell-based; details: 1 μL of 150 ppm DMSO solution + 150 μL YB liquid medium, 23° C., 3 days, absorbance at 550 nm
Property measured: degree of growth relative to the degree of growth in the non-treated well

The compound Cc1ccc(-c2ccn(S(=O)(=O)c3cccs3)n2)cc1 [compound 43] on Cochliobolus miyabeanus: degree of growth relative to the degree of growth in the non-treated well was ≤ 50%

The compound O=S(=O)(c1ccoc1)n1ccc(-c2ccc(Br)c(F)c2)n1 [compound 52] on Cochliobolus miyabeanus: degree of growth relative to the degree of growth in the non-treated well was ≤ 50%

The compound O=S(=O)(c1cccs1)n1ccc(-c2ccc(Cl)cc2)n1 [compound 81] on Cochliobolus miyabeanus: degree of growth relative to the degree of growth in the non-treated well was ≤ 50%

The compound O=S(=O)(c1cccs1)n1ccc(-c2ccc(Br)c(F)c2)n1 [compound 40] on Cochliobolus miyabeanus: degree of growth relative to the degree of growth in the non-treated well was ≤ 50%

The compound O=S(=O)(c1cccs1)n1ccc(-c2ccc3c(c2)CCC3)n1 [compound 62] on Cochliobolus miyabeanus: degree of growth relative to the degree of growth in the non-treated well was ≤ 50%

The compound O=S(=O)(c1ccoc1)n1ccc(-c2ccc(Br)cc2)n1 [compound 51] on Cochliobolus miyabeanus: degree of growth relative to the degree of growth in the non-treated well was ≤ 50%

The compound O=S(=O)(c1cccc(F)c1)n1ccc(-c2cc(F)c(Br)c(F)c2)n1 [compound 17] on Cochliobolus miyabeanus: degree of growth relative to the degree of growth in the non-treated well was ≤ 50%

The compound Cc1ccc(-c2ccn(S(=O)(=O)c3ccco3)n2)cc1F [compound 69] on Cochliobolus miyabeanus: degree of growth relative to the degree of growth in the non-treated well was ≤ 50%

The compound O=S(=O)(c1cccs1)n1ccc(-c2cc(F)c(Br)c(F)c2)n1 [compound 33] on Cochliobolus miyabeanus: degree of growth relative to the degree of growth in the non-treated well was ≤ 50%

The compound O=[N+]([O-])c1ccc(-c2ccn(S(=O)(=O)c3cccs3)n2)cc1 [compound 44] on Cochliobolus miyabeanus: degree of growth relative to the degree of growth in the non-treated well was ≤ 50%

The compound O=S(=O)(c1cccs1)n1ccc(-c2ccc3nsnc3c2)n1 [compound 68] on Cochliobolus miyabeanus: degree of growth relative to the degree of growth in the non-treated well was ≤ 50%

The compound O=S(=O)(c1ccoc1)n1ccc(-c2ccc(Cl)cc2)n1 [compound 80] on Cochliobolus miyabeanus: degree of growth relative to the degree of growth in the non-treated well was ≤ 50%

The compound CSc1ccc(-c2ccn(S(=O)(=O)c3cccs3)n2)cc1 [compound 41] on Cochliobolus miyabeanus: degree of growth relative to the degree of growth in the non-treated well was ≤ 50%

The compound O=S(=O)(c1ccco1)n1ccc(-c2ccc(Br)c(F)c2)n1 [compound 50] on Cochliobolus miyabeanus: degree of growth relative to the degree of growth in the non-treated well was ≤ 50%

The compound O=S(=O)(c1ccco1)n1ccc(-c2ccc(Cl)cc2)n1 [compound 79] on Cochliobolus miyabeanus: degree of growth relative to the degree of growth in the non-treated well was ≤ 50%

The compound O=S(=O)(c1ccco1)n1ccc(-c2ccc(Br)cc2)n1 [compound 49] on Cochliobolus miyabeanus: degree of growth relative to the degree of growth in the non-treated well was ≤ 50%

The compound O=S(=O)(c1ccco1)n1ccc(-c2ccc(I)cc2)n1 [compound 82] on Cochliobolus miyabeanus: degree of growth relative to the degree of growth in the non-treated well was ≤ 50%

The compound O=S(=O)(c1ccoc1)n1ccc(-c2ccc(I)cc2)n1 [compound 83] on Cochliobolus miyabeanus: degree of growth relative to the degree of growth in the non-treated well was ≤ 50%

The compound O=S(=O)(c1cccnc1)n1ccc(-c2ccc(Br)c(F)c2)n1 [compound 53] on Cochliobolus miyabeanus: degree of growth relative to the degree of growth in the non-treated well was ≤ 50%

The compound Cc1ccc(-c2ccn(S(=O)(=O)c3ccco3)n2)cc1 [compound 76] on Cochliobolus miyabeanus: degree of growth relative to the degree of growth in the non-treated well was ≤ 50%
